Recorded measurements of pEC50, one per entry
# testedOn: follicle-stimulating hormone (FSH) receptor (Rattus norvegicus, UniProt P20395)
# Construct: endogenous in cells
# measurementDescription: Rat granulosa EC50 FSH (Assay B)
pEC50: −log10 of the molar value.

// below: answered compounds
smilesString	pEC50
COc1cc2c(cc1-c1cccnc1F)-c1c(c(C(=O)N(C)C(C)(C)C)nn1-c1cc(Cl)cc(Cl)c1)CO2	7.00 to 8.00
COc1cc2c(cc1-c1ccn(C)n1)-c1c(c(C(=O)N(C)C(C)(C)C)nn1-c1cc(Cl)cc(C(F)(F)F)c1)CO2	6.30 to 7.00
COc1cc(Cl)cc(-n2nc(C(=O)N3CCOCC3(C)C)c3c2-c2cc(-c4cncc(C#N)c4)c(OC)cc2OC3)c1	7.00 to 8.00

// returns reported pEC50 for input "COc1cc2c(cc1-c1cccnc1C#N)-c1c(c(C(=O)N(C)C(C)(C)C)nn1-c1cc(Cl)cc(Cl)c1)CO2" 7.00 to 8.00

====

# testedOn: follicle-stimulating hormone (FSH) receptor (Rattus norvegicus)
# Construct: endogenous in cells
# Sequence (P20395 18-692): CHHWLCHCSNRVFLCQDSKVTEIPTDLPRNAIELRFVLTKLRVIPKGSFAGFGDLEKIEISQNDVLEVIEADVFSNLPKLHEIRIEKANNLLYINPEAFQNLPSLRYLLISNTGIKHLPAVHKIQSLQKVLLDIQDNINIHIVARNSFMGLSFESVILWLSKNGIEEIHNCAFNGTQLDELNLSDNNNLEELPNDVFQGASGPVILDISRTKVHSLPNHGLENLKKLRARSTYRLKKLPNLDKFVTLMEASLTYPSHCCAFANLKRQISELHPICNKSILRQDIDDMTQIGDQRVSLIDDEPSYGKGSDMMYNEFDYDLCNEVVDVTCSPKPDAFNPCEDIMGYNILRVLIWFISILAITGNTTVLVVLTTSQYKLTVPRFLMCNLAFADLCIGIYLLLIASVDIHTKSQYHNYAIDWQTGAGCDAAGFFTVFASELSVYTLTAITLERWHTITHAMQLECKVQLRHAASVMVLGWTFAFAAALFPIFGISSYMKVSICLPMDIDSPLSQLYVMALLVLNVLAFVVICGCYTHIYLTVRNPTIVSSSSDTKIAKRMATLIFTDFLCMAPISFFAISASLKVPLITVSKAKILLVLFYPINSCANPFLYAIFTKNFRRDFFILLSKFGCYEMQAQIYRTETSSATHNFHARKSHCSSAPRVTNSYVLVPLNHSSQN
# measurementDescription: Rat granulosa EC50 FSH (Assay B)
outcomeMeasure: EC50

// below: answered compounds
compound	EC50
COc1cc2c(cc1-c1cncc(C#N)c1)-c1c(c(C(=O)N3CC[S+]([O-])CC3(C)C)nn1-c1cc(F)cc(F)c1)CO2 (stereo not drawn)	10 to 100 nM
COc1cc2c(cc1-c1cnccc1C(N)=O)-c1c(c(C(=O)N(C)C(C)(C)C)nn1-c1cc(Cl)cc(Cl)c1)CO2	10 to 100 nM

// returns reported EC50 for input "COc1cc(OC)cc(-n2nc(C(=O)N(C)C(C)(C)C)c3c2-c2cc(-c4ccn(C)n4)c(OC)cc2OC3)c1" > 500 nM

====

Recorded measurements of EC50, one per entry
# testedOn: UniProt P23945
# Sequence (P23945 18-695): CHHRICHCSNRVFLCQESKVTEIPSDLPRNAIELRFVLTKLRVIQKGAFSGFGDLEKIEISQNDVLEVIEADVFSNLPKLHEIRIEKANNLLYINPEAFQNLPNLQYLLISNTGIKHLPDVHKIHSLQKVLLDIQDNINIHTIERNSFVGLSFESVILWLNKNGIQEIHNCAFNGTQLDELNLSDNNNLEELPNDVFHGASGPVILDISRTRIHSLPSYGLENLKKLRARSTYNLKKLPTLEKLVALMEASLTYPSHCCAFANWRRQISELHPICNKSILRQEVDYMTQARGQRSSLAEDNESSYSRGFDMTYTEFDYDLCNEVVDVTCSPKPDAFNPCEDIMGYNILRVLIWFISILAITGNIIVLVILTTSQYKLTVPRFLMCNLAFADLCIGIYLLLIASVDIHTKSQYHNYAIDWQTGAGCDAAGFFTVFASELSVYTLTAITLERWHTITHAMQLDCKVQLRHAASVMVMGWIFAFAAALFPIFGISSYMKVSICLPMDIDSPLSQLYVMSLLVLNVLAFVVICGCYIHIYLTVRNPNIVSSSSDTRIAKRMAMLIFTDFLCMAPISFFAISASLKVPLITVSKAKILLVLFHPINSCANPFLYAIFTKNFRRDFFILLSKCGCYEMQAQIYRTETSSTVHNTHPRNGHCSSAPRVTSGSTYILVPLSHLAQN
# measurementDescription: EC50 of cyclic AMP production in CHO FSHR cells + EC20 FSH (Assay A)
# runConditions: cyclic AMP production in CHO FSHR cells + EC20 FSH (0.265 pM), HTRF
# Protocol: Example 24. EC50 of cyclic AMP production in CHO FSHR cells+EC20 FSH (Assay A) 2500 Cho-FSHR-LUC-1-1-43 cells were plated per well in 5 al of phenol red free DMEM/F12+1% FBS. Cells were plated in 384 well, solid white low volume plates (Greiner 784075) by Multidrop. […] The plates were read on Envision using the cAMP HTRF—low volume 384 well protocol. The readout was the calculated fluorescence ratio (665 nm/620 nm). […]

molecule	recordedValue
COc1cc2c(cc1-c1ccn(C)n1)-c1c(c(C(=O)N3CCCC3(CO)CC(C)C)nn1-c1ccsc1)CO2 (stereo not shown) [Compound 126]	0.01 to 0.1 µM
COc1cc2c(cc1-c1cccnc1Cl)-c1c(c(C(=O)N(C)C(C)(C)C)nn1-c1ccsc1)CO2 [Compound 60]	< 0.01 µM
COc1cc2c(cc1-c1cncc(C(N)=O)c1C)-c1c(c(C(=O)N(C)C(C)(C)C#N)nn1-c1cc(Cl)cc(Cl)c1)CO2 [Compound 118]	< 0.01 µM

// returns reported EC50 for input COc1cc2c(cc1C1CC1C(N)=O)-c1c(c(C(=O)N(C)C(C)(C)C)nn1-c1cc(Cl)cc(Cl)c1)CO2 (stereo not shown) [Compound 199] < 0.01 µM

====

Recorded measurements of pEC50, one per entry
# testedOn: FSHR (Homo sapiens, UniProt P23945)
# measurementDescription: EC50 of cyclic AMP production in CHO FSHR cells + EC20 FSH (Assay A)
# runConditions: cyclic AMP production in CHO FSHR cells + EC20 FSH (0.265 pM), HTRF
pEC50: −log10 of the molar value.

// below: answered compounds
compound	recordedValue
COc1cc2c(cc1-c1nccnc1C#N)-c1c(c(C(=O)N(C)C(C)(C)C)nn1-c1cc(Cl)cc(Cl)c1)CO2	7.00 to 8.00
COc1cc2c(cc1-c1cnn(CC(N)=O)c1)-c1c(c(C(=O)N(C)C(C)(C)C)nn1-c1cc(Cl)cc(Cl)c1)CO2 [Compound 67]	> 8.00

Switching to the query record.
// returns reported pEC50 for input "COc1cc2c(cc1-c1cncc(C)c1)-c1c(c(C(=O)N(C)C(C)(C)C)nn1-c1ccsc1)CO2" 7.00 to 8.00
